System: recombinant human CFTR carrying the premature stop codon (PTC) mutation G542X
assay_details: CFTR-PTC mutant translation readthrough, Nanoluc tagged CFTR luminescence (G542X cell line)
Type: cell-based
details: fold over 10 μM G-418; in combination with G418; G542X cell line
endpoint: CFTR G542X ACTIVITY Fold 10 μM G-418

Completed entries (count: 5):
{"molecule": "Cc1cccc(C(F)(F)F)c1COc1cnc(-n2ncc(-c3ccccn3)n2)nc1", "CFTR G542X ACTIVITY Fold 10 μM G-418": "A′ (A′ = ≥10X)"}
{"molecule": "Cc1cccc(C(F)(F)F)c1COc1cnc(-n2cnc(CO)c2)nc1", "CFTR G542X ACTIVITY Fold 10 μM G-418": "A′ (A′ = ≥10X)"}
{"molecule": "Cc1cccc(C(F)(F)F)c1COc1cnc(N2CCC[C@H](O)C2)nc1", "CFTR G542X ACTIVITY Fold 10 μM G-418": "A′ (A′ = ≥10X)"}
{"molecule": "O=C1OC(CO)CN1c1ccc(OCc2c(Cl)cc(F)cc2Cl)cc1 (stereo not shown)", "CFTR G542X ACTIVITY Fold 10 μM G-418": "B′ (B′ = ≥5X to <10X)"}
{"molecule": "COc1ccc(CN2C(=O)CN(c3ccc(OCc4c(C)cccc4C(F)(F)F)cc3)C2=O)cc1", "CFTR G542X ACTIVITY Fold 10 μM G-418": "B′ (B′ = ≥5X to <10X)"}

Now examine the next entry.
Recorded CFTR G542X ACTIVITY Fold 10 μM G-418 for O=C1OC(CO)CN1c1ccc(OCc2c(Br)cccc2Br)cc1 (stereo not shown) , please?
A′ (A′ = ≥10X)

----------
System: recombinant human CFTR carrying the premature stop codon (PTC) mutation G542X
assay_details: CFTR-PTC mutant translation readthrough, Nanoluc tagged CFTR luminescence (G542X cell line)
Format: cell-based
details: fold over 10 μM G-418; in combination with G418; G542X cell line
endpoint: CFTR G542X ACTIVITY Fold 10 μM G-418

Worked examples, 8 compounds total:
{"compound": "O=C1CNC(=O)N1c1ccc(OCc2c(Cl)cccc2C(F)(F)F)cn1", "CFTR G542X ACTIVITY Fold 10 μM G-418": "B′ (B′ = ≥5X to <10X)"}
{"compound": "O=C1CN(c2ncc(OCc3c(Cl)cccc3C(F)(F)F)cn2)CC(CO)N1 (centres unmarked)", "CFTR G542X ACTIVITY Fold 10 μM G-418": "A′ (A′ = ≥10X)"}
{"compound": "Cc1cccc(C(F)(F)F)c1COc1cnc(N2CC(=O)N(CO)C2=O)nc1", "CFTR G542X ACTIVITY Fold 10 μM G-418": "A′ (A′ = ≥10X)"}
{"compound": "OCc1ncn(-c2ncc(OCc3c(Cl)cccc3Cl)cn2)n1", "CFTR G542X ACTIVITY Fold 10 μM G-418": "C′ (C′ = <5X)"}
{"compound": "OCc1nnc(-c2ccc(OCc3c(Cl)cccc3Cl)cc2)o1", "CFTR G542X ACTIVITY Fold 10 μM G-418": "A′ (A′ = ≥10X)"}
{"compound": "NC(=O)N1C[C@@H]2CN(c3ncc(OCc4c(Cl)cccc4Cl)cn3)C[C@@H]2C1", "CFTR G542X ACTIVITY Fold 10 μM G-418": "A′ (A′ = ≥10X)"}
{"compound": "CC(=O)NCC1CN(c2ccc(OCc3c(C)cccc3C(F)(F)F)cc2)C(=O)O1 (centres unmarked)", "CFTR G542X ACTIVITY Fold 10 μM G-418": "A′ (A′ = ≥10X)"}
{"compound": "CC(O)C1CCN(c2ncc(OCc3c(Cl)cccc3Cl)cn2)C1 (centres unmarked)", "CFTR G542X ACTIVITY Fold 10 μM G-418": "A′ (A′ = ≥10X)"}

Field: next compound
What value of CFTR G542X ACTIVITY Fold 10 μM G-418 has been recorded for this entry: OC[C@@H]1CN(c2ncc(OCc3c(Cl)cccc3C(F)(F)F)cn2)CCO1
A′ (A′ = ≥10X)

The origin of these recorded values is patent US20250228865A1.
